Form field: growth inhibition (one value per entry).
Test: NCI Yeast Anticancer Drug Screen. Data for the mlh1 rad18 strain (AID 175)
Conditions: S. cerevisiae mlh1 rad18 strain growth inhibition; at 50.0 µM; active compounds read high
Compounds without any hit were thinned out: in the full panel of roughly 79,000, 15% have a hit.
testReadout: growth inhibition (%)

INSERT INTO results (molecule, observed) VALUES
  ('Cc1cc2nc(CC(C(F)(F)F)C(F)(F)F)oc2cc1C', 34.9),
  ('CC1(C(=O)O)CCCC1C(=O)O (configuration not stated)', 12.1),
  ('CC1(O)c2ccccc2-c2c1n([O-])c1ccccc1[n+]2=O (configuration not stated)', 3.9),
  ('COc1ccccc1NC(=O)OCc1ccco1', 6.85),
  ('Cc1ncc(CSc2ccccc2N)c(CO)c1O', -4.55),
  ('CC(C)=CC(=O)OC1C2C(C)C(=O)OC2C(O)C(C)C2C=CC(=O)C21C (configuration not stated)', 8.2),
  ('CCOC(=O)/C(O)=C\c1cc(Br)c(OC)cc1[N+](=O)[O-]', 64);

###

Test: NCI Yeast Anticancer Drug Screen. Data for the mlh1 rad18 strain (AID 175)
Details: S. cerevisiae mlh1 rad18 strain growth inhibition; at 50.0 µM; active compounds read high
This is part of a sample that, as a whole, favours compounds with a hit. Of some 79,000 tested, about 15% had one in any assay.
testReadout: growth inhibition (%)

INSERT INTO measurements (compound, testreadout, observed) VALUES
  ('CCOC1=NC(C)C(C)N1 (stereo unspecified)', 'growth inhibition', -21.1),
  ('C=C(C)C(O)CC (stereo unspecified)', 'growth inhibition', 20.4),
  ('CCCCC(CC)COC(=O)CCl (stereo unspecified)', 'growth inhibition', 21.8),
  ('COc1cc2c(cc1C(C)c1ccc(OCc3ccccc3)cc1)OCO2 (stereo unspecified)', 'growth inhibition', 9.65),
  ('O=C(c1ccccc1)N1CCOCC1', 'growth inhibition', 13.2),
  ('O=C(/C=C\c1ccc(Cl)cc1)c1ccccc1', 'growth inhibition', 2.05),
  ('O=C(NCCCCCCNC(=O)NCc1ccco1)NCc1ccco1', 'growth inhibition', -19.9),
  ('CCOC(=O)C(=Cn1c(=S)[nH]c2cc(C)ccc21)C(=O)OCC', 'growth inhibition', -11.8),
  ('O=C(CCCCCCCCC(=O)OCCCn1cc(C(=O)NC(=O)OCc2ccccc2)c(=O)[nH]c1=O)OCCCn1cc(C(=O)NC(=O)OCc2ccccc2)c(=O)[nH]c1=O', 'growth inhibition', -36.8),
  ('COc1cc(C(C)S(=O)(=O)O)ccc1O (stereo unspecified)', 'growth inhibition', -5.55),
  ('O=[N+]([O-])c1ccc(Cl)c(C=NC23CC4CC(CC(C4)C2)C3)c1', 'growth inhibition', -8.9),
  ('Nc1ccc(N)c(N)c1', 'growth inhibition', 6.8),
  ('O=C(c1ccccc1)N1C(=O)c2ccccc21', 'growth inhibition', -15.5),
  ('CC(=O)O[C@@H]1[C@H]2[C@@H](OC(=O)c3ccccc3)[C@@H](C)C[C@]2(O)[C@H](OC(C)=O)[C@@]2(C)[C@@H]3CC(C)(C)C(=O)[C@]3(OC(C)=O)C[C@@]12C', 'growth inhibition', 39.4),
  ('CC(C)OC(=O)Oc1ccc(Cl)cc1Cl', 'growth inhibition', 3.45),
  ('COc1ccc(N2C(=O)C3c4[nH]c5ccccc5c4C4CC(C)CC(C)C4C3C2=O)cc1 (stereo unspecified)', 'growth inhibition', 14.7),
  ('CC1OCC2CC3(O1)OC3C(COCC1OC3COC(C)OC4(C3)OC14)O2 (stereo unspecified)', 'growth inhibition', -14.9),
  ('CCCCNc1nc2nc[nH]c2c(=O)[nH]1', 'growth inhibition', -48),
  ('COCCCNC(=O)CC(=O)NCCCOC', 'growth inhibition', 29.4),
  ('CCOC(=O)/C(OC(C)=O)=C1/C=C(C(=O)c2ccccc2)CCC1', 'growth inhibition', 7.4),
  ('CC(=O)n1oc2ccc(Br)cc2c1=O', 'growth inhibition', 9.75),
  ('Cc1ccc(N=Nc2ccc(C)cc2NC(=O)/C=C/c2ccccc2)cc1', 'growth inhibition', -8.65),
  ('ClCCCCCOCCCCCCl', 'growth inhibition', -1.05),
  ('C=CCOc1ccccc1C', 'growth inhibition', -14.9),
  ('c1ccc(CCN=C2c3ccccc3-n3cccc32)nc1', 'growth inhibition', 16.4),
  ('Cn1ncc2c(=S)[nH]c(=S)[nH]c21', 'growth inhibition', 1.85),
  ('Nc1nnnn1-c1cccc(Cl)c1', 'growth inhibition', 10.6),
  ('Cc1cc(=O)n(-c2cncc(Br)c2)[nH]1', 'growth inhibition', 7.75),
  ('CC(C)(C)n1nc(C2CC2)c(Br)c1NC(=O)c1ccc(Cl)cc1', 'growth inhibition', 1.7),
  ('O=C1NC(Cc2ccc(O)cc2)C(=O)N2CCCC12 (stereo unspecified)', 'growth inhibition', -14.2),
  ('Cn1c(=O)c2c(ncn2CCSS(=O)(=O)O)n(C)c1=O', 'growth inhibition', -28.9),
  ('CC(C)(C)c1cc2c(OP(c3ccccc3)c3ccccc3)c(c1)Cc1cc(C(C)(C)C)cc(c1OP(c1ccccc1)c1ccccc1)Cc1cc(C(C)(C)C)cc(c1OP(c1ccccc1)c1ccccc1)Cc1cc(C(C)(C)C)cc(c1OP(c1ccccc1)c1ccccc1)C2', 'growth inhibition', -14.2),
  ('C/C=C/C=C1/OC(C)=C(C(=O)OCC)C1=O', 'growth inhibition', -1.9),
  ('COc1cc(S(=O)(=O)O)ccc1N=N/C(=N\Nc1ccc(S(=O)(=O)O)cc1OC)C(N)=O', 'growth inhibition', 7.7),
  ('O=C(O)/C=C(/C(=O)O)c1cccn1Cc1ccccc1', 'growth inhibition', 16.4),
  ('O=C(O)c1cnc2cc3c(cc2c1Nc1cccc(C(F)(F)F)c1)OCO3', 'growth inhibition', 4.05),
  ('Cn1c(=O)c2[nH]c(CCCCCc3nc4c([nH]3)c(=O)n(C)c(=O)n4C)nc2n(C)c1=O', 'growth inhibition', -16.1),
  ('Cc1cccc(C(=O)NNC(=O)c2ccc3ccccc3c2)c1', 'growth inhibition', -33.2),
  ('CSc1ccc(C2=CCCCC2)cc1', 'growth inhibition', 17.9),
  ('CSCCCNC(=O)c1csc(-c2csc(CCNC(=O)[C@@H](NSc3ccccc3[N+](=O)[O-])[C@@H](C)O)n2)n1', 'growth inhibition', 18.9),
  ('CCCOc1ncnc2nc[nH]c12', 'growth inhibition', 19.7),
  ('CC(=O)OCC(C)Cc1ccc(C(C)(C)C)cc1 (stereo unspecified)', 'growth inhibition', -2.4),
  ('NC(=O)c1csc([C@@H](O)Cc2ccccc2)n1', 'growth inhibition', 7.95),
  ('CSc1ccc(NC(=O)C(Cl)Cl)cc1', 'growth inhibition', 1.9),
  ('N#CCCN(CCC#N)c1ccc(/C=C2\N=C(COc3ccc(Cl)cc3Cl)OC2=O)cc1', 'growth inhibition', -4.3),
  ('Nc1nc(N)c(N=Nc2ccc(Cl)cc2Cl)c(=O)[nH]1', 'growth inhibition', 2.75);
